tested on: HaCaT cells; assay: Glucose uptake (2-NBDG) in HaCaT keratinocytes; assay type: cell-based; settings: 50 μM, +2NBDG 50 μM, 24 h
Catalogue of Measure 2 (fluorescence) readings, one per entry.

1) COc1ccc(-c2coc3cc(O)cc(O[C@@H]4O[C@@H](C)[C@H](O)[C@@H](O)[C@H]4O)c3c2=O)cc1 [BR2, Biochanin A 5-O-α-L-rhamnoside]    1788604

input: # get_value(readout='Measure 2 (fluorescence)', item= CC1O[C@@H](Oc2cc(O)cc3oc(-c4ccccc4)cc(=O)c23)C(O)C(O)[C@H]1O (stereo partly drawn) [CR2, Chrysin-5-O-α-L-rhamnoside] )
output: 1100390

input: # get_value(readout='Measure 2 (fluorescence)', item= COc1ccc(-c2coc3cc(O[C@@H]4O[C@@H](C)[C@H](O)[C@@H](O)[C@H]4O)cc(O[C@@H]4O[C@@H](C)[C@H](O)[C@@H](O)[C@H]4O)c3c2=O)cc1 [BR1, Biochanin A-5,7-di-O-α-L-rhamnoside] )
output: 626443

input: # get_value(readout='Measure 2 (fluorescence)', item= C[C@@H]1O[C@@H](Oc2cc(O)cc3c2C(=O)CC(c2ccc(O)cc2)O3)[C@H](O)[C@H](O)[C@H]1O (mixture of isomers) [NR1, Naringenin-5-O-α-L-rhamnoside] )
output: 256310

input: # get_value(readout='Measure 2 (fluorescence)', item= CC1O[C@@H](Oc2cc(O[C@@H]3OC(C)[C@H](O)C(O)C3O)c3c(=O)cc(-c4ccccc4)oc3c2)C(O)C(O)[C@H]1O (stereo partly drawn) [CR1, Chrysin-di-5,7-O-α-L-rhamnoside] )
output: 595330

The measurements presented in this section are drawn from patent US20190203240A1.
